Answer each item with its documented RFU.
- test_target: Calcium-activated potassium channel subunit alpha-1 (Homo sapiens)
- test_method_notes: Opening of BK channel in human AD293 cells assessed as relative fluorescence unit at 5 uM by cell-based fluorescence assay relative to control
Field format: numeric only.

stdin: Query: RFU; subject: N#Cc1ccccc1Cc1cnc(N)s1
stdout: 1.06

stdin: Query: RFU; subject: N#Cc1cccc(Cc2cnc(N)s2)c1
stdout: 1

stdin: Query: RFU; subject: Nc1ncc(Cc2ccccc2Cl)s1
stdout: 1.13

stdin: Query: RFU; subject: Nc1ncc(Cc2cccc(C(F)(F)F)c2)s1
stdout: 1.22

stdin: Query: RFU; subject: Nc1ncc(Cc2ccc(C(F)(F)F)cc2)s1
stdout: 2.1

stdin: Query: RFU; subject: O=C(CCl)Nc1ncc(Cc2ccc(Br)cc2)s1
stdout: 0.94

stdin: Query: RFU; subject: Cc1ccccc1Cc1cnc(N)s1
stdout: 1.37

stdin: Query: RFU; subject: COc1cc(Cc2cnc(N)s2)cc(C(F)(F)F)c1
stdout: 0.97

stdin: Query: RFU; subject: COc1ccc(Cc2cnc(N)s2)cc1
stdout: 1.02

stdin: Query: RFU; subject: Nc1ncc(Cc2cccc(Br)c2)s1
stdout: 1.37

stdin: Query: RFU; subject: Nc1ncc(Cc2ccc(Br)cc2)s1
stdout: 1.85

stdin: Query: RFU; subject: COc1ccccc1Cc1cnc(N)s1
stdout: 0.94

stdin: Query: RFU; subject: Nc1ncc(Cc2ccc(Cl)cc2)s1
stdout: 1.59

stdin: Query: RFU; subject: Nc1ncc(Cc2ccncc2)s1
stdout: 1.11

stdin: Query: RFU; subject: Nc1ncc(C(=O)c2ccc(Br)cc2)s1
stdout: 0.94

stdin: Query: RFU; subject: Nc1ncc(Cc2cccc(Cl)c2)s1
stdout: 1.51

stdin: Query: RFU; subject: N#Cc1ccc(Cc2cnc(N)s2)cc1
stdout: 1.21

stdin: Query: RFU; subject: Nc1ncc(Cc2ccccc2C(F)(F)F)s1
stdout: 1.07

stdin: Query: RFU; subject: COc1cccc(Cc2cnc(N)s2)c1
stdout: 1.02

stdin: Query: RFU; subject: Nc1ncc(C(=O)c2ccc(C(F)(F)F)cc2)s1
stdout: 1.08

stdin: Query: RFU; subject: CC(=O)Nc1ncc(Cc2ccc(Br)cc2)s1
stdout: 1.14

stdin: Query: RFU; subject: Nc1ncc(Cc2ccc([N+](=O)[O-])cc2)s1
stdout: 0.94

stdin: Query: RFU; subject: Cc1cccc(Cc2cnc(N)s2)c1
stdout: 1.27

stdin: Query: RFU; subject: Cc1ccc(Cc2cnc(N)s2)cc1
stdout: 1.11

stdin: Query: RFU; subject: Nc1ncc(Cc2cccnc2)s1
stdout: 1.08

stdin: Query: RFU; subject: Nc1ncc(Cc2ccccc2Br)s1
stdout: 2.67

stdin: Query: RFU; subject: O=C(O)c1ccc(Cl)c2c1[nH]c1c3ccc(C(F)(F)F)cc3oc12
stdout: 3.3
